- Measured On: Cellular tumor antigen p53 (Homo sapiens) (UniProt P04637)
- Sequence (P04637 whole entry, looked up): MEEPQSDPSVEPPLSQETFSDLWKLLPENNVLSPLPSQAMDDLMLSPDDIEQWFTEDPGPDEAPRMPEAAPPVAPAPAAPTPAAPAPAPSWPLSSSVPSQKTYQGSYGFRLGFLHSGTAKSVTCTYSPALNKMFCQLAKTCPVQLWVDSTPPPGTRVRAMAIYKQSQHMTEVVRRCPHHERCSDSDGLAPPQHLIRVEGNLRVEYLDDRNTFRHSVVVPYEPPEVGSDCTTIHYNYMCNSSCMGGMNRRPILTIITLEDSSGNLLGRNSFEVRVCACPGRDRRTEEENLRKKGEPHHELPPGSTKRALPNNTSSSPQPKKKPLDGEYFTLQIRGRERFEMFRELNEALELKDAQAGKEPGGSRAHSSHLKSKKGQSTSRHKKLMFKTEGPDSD
- Test Details: TOX21_p53_BLA_p4_ratio: Tox21 HCT-116 p53 Agonism Beta-lactamase Assay, Ratio, Phase 4 (AID 2283601)
Inconclusive results are not listed. Calls of active or inactive are those of the source. The calls were made as follows: active = hit-call score of the fitted dose curve at least 0.9, where 1 is the maximum; inconclusive = response in the unintended direction; inactive = score below 0.9.

>  <Molecule>
O=C(Cl)OCc1ccccc1

>  <Measured On>
Cellular tumor antigen p53 (Homo sapiens) (UniProt P04637)

>  <AC50>
inactive

$$$$
>  <Molecule>
COP(=O)(OC)OC(=CCl)c1cc(Cl)c(Cl)cc1Cl

>  <Measured On>
Cellular tumor antigen p53 (Homo sapiens) (UniProt P04637)

>  <AC50>
inactive

$$$$
>  <Molecule>
O=c1ccc2cc(O[C@@H]3O[C@H](CO)[C@@H](O)[C@H](O)[C@H]3O)c(O)cc2o1

>  <Measured On>
Cellular tumor antigen p53 (Homo sapiens) (UniProt P04637)

>  <AC50>
10.9 µM (active)

$$$$
>  <Molecule>
Clc1ccccc1-c1ccccc1Cl

>  <Measured On>
Cellular tumor antigen p53 (Homo sapiens) (UniProt P04637)

>  <AC50>
inactive

$$$$
>  <Molecule>
O=C(N[C@@H]1N=C(c2ccccc2F)c2cccc3c2N(CC3)C1=O)c1cc2ccccc2[nH]1

>  <Measured On>
Cellular tumor antigen p53 (Homo sapiens) (UniProt P04637)

>  <AC50>
26.6 µM (active)

$$$$
>  <Molecule>
O=CC=Cc1ccccc1

>  <Measured On>
Cellular tumor antigen p53 (Homo sapiens) (UniProt P04637)

>  <AC50>
inactive

$$$$
>  <Molecule>
O=C(O)c1ccccc1C(=O)Nc1cccc2ccccc12

>  <Measured On>
Cellular tumor antigen p53 (Homo sapiens) (UniProt P04637)

>  <AC50>
70.1 µM (active)

$$$$
>  <Molecule>
Cn1c(CCCC(=O)O)nc2cc(N(CCCl)CCCl)ccc21

>  <Measured On>
Cellular tumor antigen p53 (Homo sapiens) (UniProt P04637)

>  <AC50>
32.4 µM (active)

$$$$
>  <Molecule>
Oc1c(Br)c(Br)c(Br)c(Br)c1Br

>  <Measured On>
Cellular tumor antigen p53 (Homo sapiens) (UniProt P04637)

>  <AC50>
inactive

$$$$
>  <Molecule>
O=[N+]([O-])CCO

>  <Measured On>
Cellular tumor antigen p53 (Homo sapiens) (UniProt P04637)

>  <AC50>
inactive

$$$$
>  <Molecule>
CCCCN(N=O)C(=N)N[N+](=O)[O-]

>  <Measured On>
Cellular tumor antigen p53 (Homo sapiens) (UniProt P04637)

>  <AC50>
40.7 µM (active)

$$$$
>  <Molecule>
CCCN(CCC)CCc1c[nH]c2ccccc12

>  <Measured On>
Cellular tumor antigen p53 (Homo sapiens) (UniProt P04637)

>  <AC50>
inactive

$$$$
>  <Molecule>
[Cl][Hg][c]1ccccc1

>  <Measured On>
Cellular tumor antigen p53 (Homo sapiens) (UniProt P04637)

>  <AC50>
0.672 µM (active)

$$$$
>  <Molecule>
CC[C@]1(O)CC[C@H]2[C@@H]3CCC4=CCCC[C@@H]4[C@H]3CC[C@@]21C

>  <Measured On>
Cellular tumor antigen p53 (Homo sapiens) (UniProt P04637)

>  <AC50>
7.04 µM (active)

$$$$
>  <Molecule>
C[C@@H]([C@H](O)c1ccccc1)N(C)C

>  <Measured On>
Cellular tumor antigen p53 (Homo sapiens) (UniProt P04637)

>  <AC50>
inactive

$$$$
>  <Molecule>
COC(COC(N)=O)C1=C(N2CC2)C(=O)C(C)=C(N2CC2)C1=O (centres undefined)

>  <Measured On>
Cellular tumor antigen p53 (Homo sapiens) (UniProt P04637)

>  <AC50>
17.2 µM (active)

$$$$
>  <Molecule>
O=C1c2ccccc2C(=O)C1C(=O)C(c1ccccc1)c1ccccc1

>  <Measured On>
Cellular tumor antigen p53 (Homo sapiens) (UniProt P04637)

>  <AC50>
36.6 µM (active)

$$$$
>  <Molecule>
Clc1ccc(CSC(Cn2ccnc2)c2ccc(Cl)cc2Cl)cc1 (centres undefined)

>  <Measured On>
Cellular tumor antigen p53 (Homo sapiens) (UniProt P04637)

>  <AC50>
15.4 µM (active)

$$$$
>  <Molecule>
CCC1(c2cnc[nH]2)Cc2ccccc2C1

>  <Measured On>
Cellular tumor antigen p53 (Homo sapiens) (UniProt P04637)

>  <AC50>
inactive

$$$$
>  <Molecule>
Cc1ccc(OP(=O)(Oc2ccc(C)cc2)Oc2ccc(C)cc2)cc1 (tested in a mixture with another compound)

>  <Measured On>
Cellular tumor antigen p53 (Homo sapiens) (UniProt P04637)

>  <AC50>
inactive

$$$$
>  <Molecule>
COc1cccc(C(=O)CCN[C@@H](C)[C@H](O)c2ccccc2)c1

>  <Measured On>
Cellular tumor antigen p53 (Homo sapiens) (UniProt P04637)

>  <AC50>
inactive

$$$$
>  <Molecule>
CN[C@@]1(c2ccccc2Cl)CCCCC1=O

>  <Measured On>
Cellular tumor antigen p53 (Homo sapiens) (UniProt P04637)

>  <AC50>
inactive

$$$$
>  <Molecule>
CCCCCCCCCCCCCC[P+](CCCCCC)(CCCCCC)CCCCCC (tested in a mixture with another compound)

>  <Measured On>
Cellular tumor antigen p53 (Homo sapiens) (UniProt P04637)

>  <AC50>
inactive

$$$$
>  <Molecule>
Cc1cccc(Cc2cnc[nH]2)c1C

>  <Measured On>
Cellular tumor antigen p53 (Homo sapiens) (UniProt P04637)

>  <AC50>
inactive

$$$$

---

- Read-out: CD38, CD38 (gene 952)
- Test Details: BSK_SAg_CD38: BioMAP Diversity Plus: SAg Assay for CD38 Biomarker Activity (AID 2283087)
- Condition Notes: primary human HUVEC with PBMC; actives raise or lower the signal
- Protocol: BSK_SAg is a cell-based, multiplexed-readout assay that uses umbilical vein endothelium and peripheral blood mononuclear cells, a human vascular primary cell co-culture, with measurements taken at 24 hours after chemical dosing in a 96-well plate.BSK_SAg_CD38 is one of 10 assay component(s) measured or calculated from the BSK_SAg assay. […] This assay endpoint, BSK_SAg_CD38, was analyzed with bidirectional fitting relative to DMSO as the negative control and baseline of activity. […]
The source made the active and inactive calls. The calls were made as follows: active = hit-call score of the fitted dose curve at least 0.9, where 1 is the maximum; inactive = score below 0.9.
Outcome codes: active, inactive

>  <Compound>
COCC(=O)N(c1c(C)cccc1C)N1CCOC1=O

>  <Cat>
inactive

$$$$
>  <Compound>
O=P1(NCCCl)OCCCN1CCCl (configuration not stated)

>  <Cat>
inactive

$$$$
>  <Compound>
O=[N+]([O-])c1ccc(Cl)cc1

>  <Cat>
inactive

$$$$
>  <Compound>
CNC(=O)Oc1cc(C)c(SC)c(C)c1

>  <Cat>
inactive

$$$$
>  <Compound>
Cc1ccc(OP(=O)(Oc2ccc(C)cc2)Oc2ccc(C)cc2)cc1 (tested in a mixture with another compound)

>  <Cat>
active

$$$$
>  <Compound>
CCCCCCCCCCCC#N

>  <Cat>
active

$$$$
>  <Compound>
O=c1[nH]c(Cl)c(Cl)cc1Cl

>  <Cat>
inactive

$$$$
>  <Compound>
CCCC[N+](CCCC)(CCCC)CCCC

>  <Cat>
inactive

$$$$
>  <Compound>
CC(C)(C)C(=O)CCl

>  <Cat>
active

$$$$
>  <Compound>
O=[N+]([O-])C=Cc1ccccc1

>  <Cat>
active

$$$$
>  <Compound>
CC(=O)/C=C/c1ccccc1

>  <Cat>
inactive

$$$$
>  <Compound>
Nc1ccc(-c2ccc(N)c(N)c2)cc1N

>  <Cat>
inactive

$$$$

---

- Test Details: ATG_ISRE_CIS: Attagene CIS-FACTORIAL HepG2 Assay for human Interferon Regulatory Factor 1 (IRF1) binding to an Interferon-Stimulated Response Element (ISRE) (AID 2282948)
- Condition Notes: HepG2 ISRE cis-reporter (Attagene), mRNA transcription readout; actives raise or lower the signal
Activity calls are given as the source filed them. The calls were made as follows: active = hit-call score of the fitted dose curve at least 0.9, where 1 is the maximum; inactive = score below 0.9.
Outcome codes: Yes = active, No = inactive

>  <Compound>
CC(C)CCCCCCCOC(=O)c1ccccc1C(=O)OCCCCCCCC(C)C

>  <Cat>
No

$$$$
>  <Compound>
O=S(=O)(c1ccccc1)c1ccccc1

>  <Cat>
No

$$$$
>  <Compound>
[CH3][Sn]([Cl])([Cl])[Cl]

>  <Cat>
No

$$$$
>  <Compound>
[Cl-].[Cl-].[Cl-].[Yb+3]

>  <Cat>
No

$$$$
>  <Compound>
O=C(NC(=O)c1c(F)cccc1F)Nc1ccc(Oc2ccc(C(F)(F)F)cc2Cl)cc1F

>  <Cat>
Yes

$$$$
>  <Compound>
CCC(Br)(CC)C(=O)NC(N)=O

>  <Cat>
No

$$$$
>  <Compound>
C[N+](C)(C)CC(=O)O

>  <Cat>
No

$$$$
>  <Compound>
Nc1ccc([N+](=O)[O-])cc1N

>  <Cat>
No

$$$$
>  <Compound>
Nc1ccc(-c2ccc(N)c(N)c2)cc1N

>  <Cat>
No

$$$$
>  <Compound>
Cc1ccc(OP(=O)(Oc2ccc(C)cc2)Oc2ccc(C)cc2)cc1 (tested in a mixture with another compound)

>  <Cat>
Yes

$$$$
>  <Compound>
C=COCCCl

>  <Cat>
No

$$$$
>  <Compound>
CCCC=NO

>  <Cat>
No

$$$$
>  <Compound>
Cc1ncc(C[n+]2csc(CCO)c2C)c(N)n1

>  <Cat>
No

$$$$
